Reported values of relative viability for individual entries
test system: SYO-1; assay: relative viability vs DMSO control (72 h) (fraction); higher = more viable cells; settings: 0.1235 µM

{"COMPOUND": "COc1cc2ncnc(Nc3ccc(F)c(Cl)c3)c2cc1OCCCN1CCOCC1", "relative viability": 1}
{"COMPOUND": "O=S(=O)(c1cccc2c(O)nccc12)N1CCCNCC1 [Hydroxyfasudil]", "relative viability": 0.983}
{"COMPOUND": "C#Cc1cccc(Nc2ncnc3cc4c(cc23)OCCOCCOCCO4)c1", "relative viability": 0.982}
{"COMPOUND": "CNC(=O)c1cccc2cc(Oc3ccnc4cc(OCC5(N)CC5)c(OC)cc34)ccc12", "relative viability": 0.688}
{"COMPOUND": "COc1cc(Nc2ncc3c(n2)-c2ccc(Cl)cc2C(c2c(F)cccc2OC)=NC3)ccc1C(=O)O", "relative viability": 0.618}
{"COMPOUND": "COc1cc(N2CCC(N3CCN(C)CC3)CC2)ccc1Nc1ncc(Cl)c(Nc2ccccc2P(C)(C)=O)n1", "relative viability": 0.706}
{"COMPOUND": "CS(=O)(=O)CCNCc1ccc(-c2ccc3ncnc(Nc4ccc(OCc5cccc(F)c5)c(Cl)c4)c3c2)o1", "relative viability": 0.934}
{"COMPOUND": "O=C1CCc2c(Oc3ccc4c(c3)[C@@H]3[C@H](O4)[C@H]3c3nc4cc(C(F)(F)F)ccc4[nH]3)ccnc2N1", "relative viability": 0.905}

====

test system: SYO-1; experiment: relative viability vs DMSO control (72 h) (fraction); higher = more viable cells; settings: 0.00051 µM
met if relative viability is below 1. not met if not; exact matches included in not met.

{"MOLECULE": "Cc1c2oc3c(C)ccc(C(=O)N[C@@H]4C(=O)N[C@H](C(C)C)C(=O)N5CCC[C@H]5C(=O)N(C)CC(=O)N(C)[C@@H](C(C)C)C(=O)O[C@@H]4C)c3nc-2c(C(=O)N[C@@H]2C(=O)N[C@H](C(C)C)C(=O)N3CCC[C@H]3C(=O)N(C)CC(=O)N(C)[C@@H](C(C)C)C(=O)O[C@@H]2C)c(N)c1=O [Dactinomycin]", "ANSWER_LABEL": "met"}
{"MOLECULE": "O=C1CCc2c(Oc3ccc4c(c3)[C@@H]3[C@H](O4)[C@H]3c3nc4cc(C(F)(F)F)ccc4[nH]3)ccnc2N1 [Lifirafenib]", "ANSWER_LABEL": "met"}
{"MOLECULE": "C#Cc1cccc(Nc2ncnc3cc4c(cc23)OCCOCCOCCO4)c1 [Icotinib]", "ANSWER_LABEL": "not met"}
{"MOLECULE": "CNC(=O)c1c(C)oc2cc(Oc3ncnc4cc(OC)c(OC)cc34)ccc12 [Fruquintinib]", "ANSWER_LABEL": "not met"}
{"MOLECULE": "COc1cc(N2CCC(N3CCN(C)CC3)CC2)ccc1Nc1ncc(Cl)c(Nc2ccccc2P(C)(C)=O)n1 [Brigatinib]", "ANSWER_LABEL": "met"}
{"MOLECULE": "Cc1cc2c(F)c(Oc3ncnn4cc(OC[C@@H](C)OC(=O)[C@H](C)N)c(C)c34)ccc2[nH]1 [Brivanib_alaninate]", "ANSWER_LABEL": "met"}

====

Reported values of relative viability for individual entries
system: HS729; assay: relative viability vs DMSO control (72 h) (fraction); higher = more viable cells; details: 10 µM

{"COMPOUND": "CN(C)CCCOc1ccc(-c2ccc3ncc4c(c3c2)n(C2CCOCC2)c(=O)n4C)cn1 [AZD-0156]", "relative viability": 0.519}
{"COMPOUND": "CN(C)C(=O)c1cc2cnc(Nc3ccc(N4CCNCC4)cn3)nc2n1C1CCCC1 [Ribociclib]", "relative viability": 0.869}
{"COMPOUND": "COc1cc2ncnc(Nc3ccc(F)c(Cl)c3)c2cc1OCCCN1CCOCC1 [Gefitinib]", "relative viability": 0.621}
{"COMPOUND": "CCOc1cc2ncc(C#N)c(Nc3ccc(OCc4ccccn4)c(Cl)c3)c2cc1NC(=O)/C=C/CN(C)C [Neratinib]", "relative viability": 0.00633}

====

test system: VA-ES-BJ; assay: relative viability vs DMSO control (72 h) (fraction); higher = more viable cells; conditions: 0.00152 µM
Reported values of relative viability for individual entries
MEASURED_QUANTITY: relative viability

{"COMPOUND": "C=CC(=O)N1CCC(CNc2ncnc(N)c2-c2ccc(Oc3ccccc3)cc2)CC1", "NUMBER": 1.07}
{"COMPOUND": "C#Cc1cccc(Nc2ncnc3cc4c(cc23)OCCOCCOCCO4)c1", "NUMBER": 1.1}
{"COMPOUND": "CCS(=O)(=O)N1CC(CC#N)(n2cc(-c3ncnc4[nH]ccc34)cn2)C1", "NUMBER": 1.02}
{"COMPOUND": "Cc1cc2c(F)c(Oc3ncnn4cc(OC[C@@H](C)OC(=O)[C@H](C)N)c(C)c34)ccc2[nH]1 [Brivanib_alaninate]", "NUMBER": 1.03}
{"COMPOUND": "CNC(=O)c1cccc2cc(Oc3ccnc4cc(OCC5(N)CC5)c(OC)cc34)ccc12", "NUMBER": 1.09}
{"COMPOUND": "CCOc1cc2ncc(C#N)c(Nc3ccc(OCc4ccccn4)c(Cl)c3)c2cc1NC(=O)/C=C/CN(C)C", "NUMBER": 1.02}
{"COMPOUND": "Cn1cnc2c(F)c(Nc3ccc(Br)cc3Cl)c(C(=O)NOCCO)cc21", "NUMBER": 0.985}
{"COMPOUND": "CN(C)C/C=C/C(=O)Nc1cc2c(Nc3ccc(F)c(Cl)c3)ncnc2cc1O[C@H]1CCOC1", "NUMBER": 1.06}

====

Reported values of relative viability for individual entries
test system: MES-SA; assay: relative viability vs DMSO control (72 h) (fraction); higher = more viable cells; conditions: 3.333 µM

{"COMPOUND": "CS(=O)(=O)CCNCc1ccc(-c2ccc3ncnc(Nc4ccc(OCc5cccc(F)c5)c(Cl)c4)c3c2)o1", "relative viability": 0.683}
{"COMPOUND": "Cc1cc2c(F)c(Oc3ncnn4cc(OC[C@@H](C)OC(=O)[C@H](C)N)c(C)c34)ccc2[nH]1 [Brivanib_alaninate]", "relative viability": 0.829}
{"COMPOUND": "CNC(=O)c1c(C)oc2cc(Oc3ncnc4cc(OC)c(OC)cc34)ccc12", "relative viability": 0.855}
{"COMPOUND": "O=C(/C=C\\n1cnc(-c2cc(C(F)(F)F)cc(C(F)(F)F)c2)n1)NNc1cnccn1 [Selinexor]", "relative viability": 0.189}

====

test system: SW982; assay: relative viability vs DMSO control (72 h) (fraction); higher = more viable cells; conditions: 0.00017 µM
Reported values of relative viability for individual entries

{"MOLECULE": "CCOc1cc2ncc(C#N)c(Nc3ccc(OCc4ccccn4)c(Cl)c3)c2cc1NC(=O)/C=C/CN(C)C [Neratinib]", "relative viability": 1.06}
{"MOLECULE": "COc1cc(Nc2ncc3c(n2)-c2ccc(Cl)cc2C(c2c(F)cccc2OC)=NC3)ccc1C(=O)O [Alisertib]", "relative viability": 1.01}
{"MOLECULE": "COc1cc2ncnc(Nc3ccc(F)c(Cl)c3)c2cc1OCCCN1CCOCC1 [Gefitinib]", "relative viability": 0.997}

====

Reported values of relative viability for individual entries
tested on: SW872; assay: relative viability vs DMSO control (72 h) (fraction); higher = more viable cells; conditions: 10 µM

{"MOLECULE": "O=S(=O)(c1cccc2c(O)nccc12)N1CCCNCC1 [Hydroxyfasudil]", "relative viability": 0.964}
{"MOLECULE": "CCOc1cc2ncc(C#N)c(Nc3ccc(OCc4ccccn4)c(Cl)c3)c2cc1NC(=O)/C=C/CN(C)C", "relative viability": -0.00553}
{"MOLECULE": "CNC(=O)c1cccc2cc(Oc3ccnc4cc(OCC5(N)CC5)c(OC)cc34)ccc12", "relative viability": 0.961}
{"MOLECULE": "C[C@@H]1CN(C(=O)c2ccc(NC(=O)c3cc(O[C@H](C)c4c(Cl)ccc(F)c4Cl)c(N)nn3)cc2)C[C@H](C)N1", "relative viability": 0.188}
{"MOLECULE": "Cc1cc2c(F)c(Oc3ncnn4cc(OC[C@@H](C)OC(=O)[C@H](C)N)c(C)c34)ccc2[nH]1 [Brivanib_alaninate]", "relative viability": 1.03}
{"MOLECULE": "C=CC(=O)N1CCC(CNc2ncnc(N)c2-c2ccc(Oc3ccccc3)cc2)CC1", "relative viability": 1.01}

====

Reported values of relative viability for individual entries
tested on: KHOS-240S; test: relative viability vs DMSO control (72 h) (fraction); higher = more viable cells; conditions: 0.00051 µM
MEASURED_QUANTITY: relative viability

{"COMPOUND": "O=C(/C=C\\n1cnc(-c2cc(C(F)(F)F)cc(C(F)(F)F)c2)n1)NNc1cnccn1 [Selinexor]", "NUMBER": 1.11}
{"COMPOUND": "COC(=O)c1ccc2c(c1)NC(=O)/C2=C(\\Nc1ccc(N(C)C(=O)CN2CCN(C)CC2)cc1)c1ccccc1", "NUMBER": 1.05}
{"COMPOUND": "CNC(=O)c1c(C)oc2cc(Oc3ncnc4cc(OC)c(OC)cc34)ccc12", "NUMBER": 1.07}
{"COMPOUND": "CNC(=O)c1cccc2cc(Oc3ccnc4cc(OCC5(N)CC5)c(OC)cc34)ccc12", "NUMBER": 1.05}

Values were extracted from the supplement of paper PMC10883282.
